- System: RAW 264.7 macrophages
- assayRemarks: Cell viability by MTT reduction
- Type: cell-based
- protocolConditions: RAW 264.7 cells treated with compounds
readoutName: cell toxicity / influence on cell viability (in words)

molecule="CC(C)(O)[C@@H]1CC[C@](C)([C@H]2[C@@H](O)C[C@@]3(C)[C@@H]4C[C@H](O[C@@H]5O[C@H](CO)[C@@H](O)[C@H](O)[C@H]5O)[C@H]5C(C)(C)[C@@H](O[C@@H]6OC[C@@H](O)[C@H](O)[C@H]6O)CC[C@@]56C[C@@]46CC[C@]23C)O1 [Compound 5, astragaloside IV]" result="without cytotoxicity"
molecule="CC(=O)OC1C(OC2CCC34CC35CCC3(C)C(C(C)CCC(O)C(C)(C)O)CCC3(C)C5CC(OC3OC(CO)C(O)C(O)C3O)C4C2(C)C)OCC(O)C1O (centres unmarked)" result="without cytotoxicity"
